Experiment: AUC (0 to 24 hrs) in beagle dog at 3 mg/kg, po by LC-MS/MS analysis
Format: ADME, organism-based, Canis lupus familiaris
Design: dose 3 mg/kg, time < 24 hr, route oral
Conditions: in vivo
PROPERTY NAME: AUC(0-t) at 24 h (ng·h/mL)
One number for each entry, in ng·h/mL.

Query: # query: AUC(0-t) at 24 h of entry Cn1cc(C(=O)O)c2ccc(N3CCC(OCc4c(-c5c(Cl)cccc5Cl)noc4C4CC4)CC3)cc21
Reply: 4690

###

Assay: Fraction unbound in human plasma
Assay type: ADME, cell-free
PROPERTY NAME: fraction unbound
Answers are plain numbers.

Query: # lookup: fraction unbound of Cn1cc(C(=O)O)c2ccc(N3CCC(OCc4c(-c5c(Cl)cccc5Cl)noc4C4CC4)CC3)cc21 [TERN-101]
Reply: 0.032

###

Experiment: Tmax in Sprague-Dawley rat at 3 mg/kg, po by LC-MS/MS analysis
Type: ADME, organism-based
Conditions: in vivo
PROPERTY NAME: Tmax (h)
One number for each entry, in h.

Query: Endpoint output: Tmax of Cn1cc(C(=O)O)c2ccc(N3CCC(OCc4c(-c5c(Cl)cccc5Cl)noc4C4CC4)CC3)cc21 . Value?
Reply: 1.08
